Each recorded value in this set is attributed to the supplement of paper PMC5998384.

solubility in G1/S (log2) overview
- Test system: HeLa Kyoto;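 also: HeLa Kyoto cells arrested at G1/S by double thymidine block, proteins quantified by TMT10plex mass spectrometry in mild NP-40 versus SDS extracts, three biological replicates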
- Protocol notes: solubility in G1/S (NP-40 vs SDS abundance) (log2 ratio); higher = more soluble
- Cond: cell cycle stage: G1/S
Property measured: solubility in G1/S (log2)

[[record]]
sequence_string = "MATPGPVIPEVPFEPSKPPVIEGLSPTVYRNPESFKEKFVRKTRENPVVPIGCLATAAALTYGLYSFHRGNSQRSQLMMRTRIAAQGFTVAAILLGLAVTAMKSRP [HIGD2A]"
property_measured = "solubility in G1/S (log2)"
data_value = -0.399

[[record]]
sequence_string = "MAQTPAFDKPKVELHVHLDGSIKPETILYYGRRRGIALPANTAEGLLNVIGMDKPLTLPDFLAKFDYYMPAIAGCREAIKRIAYEFVEMKAKEGVVYVEVRYSPHLLANSKVEPIPWNQAEGDLTPDEVVALVGQGLQEGERDFGVKARSILCCMRHQPNWSPKVVELCKKYQQQTVVAIDLAGDETIPGSSLLPGHVQAYQEAVKSGIHRTVHAGEVGSAEVVKEAVDILKTERLGHGYHTLEDQALYNRLRQENMHFEICPWSSYLTGAWKPDTEHAVIRLKNDQANYSLNTDDPLIFKSTLDTDYQMTKRDMGFTEEEFKRLNINAAKSSFLPEDEKRELLDLLYKAYGMPPSASAGQNL [ADA]"
property_measured = "solubility in G1/S (log2)"
data_value = 0.319

[[record]]
sequence_string = "MSGPRPVVLSGPSGAGKSTLLKRLLQEHSGIFGFSVSHTTRNPRPGEENGKDYYFVTREVMQRDIAAGDFIEHAEFSGNLYGTSKVAVQAVQAMNRICVLDVDLQGVRNIKATDLRPIYISVQPPSLHVLEQRLRQRNTETEESLVKRLAAAQADMESSKEPGLFDVVIINDSLDQAYAELKEALSEEIKKAQRTGA [GUK1]"
property_measured = "solubility in G1/S (log2)"
data_value = 0.604

